From: ChEMBL document CHEMBL1154766

- System: HT-29
- methodDescription: Cytotoxicity against human HT-29 cells after 72 hrs by SRB assay
- Assay type: functional
- measurementContext: HT-29, 72 h
valueKind: GI50 (nM)
Entry rule: numbers only, all in nM.

{"columns": ["molecule", "GI50, nM"],
 "data": [
  ["C=CCOC(=O)[C@H]1[C@H](c2cc(OC)c(OC)c(OC)c2)c2cc3c(cc2[C@H](O)[C@H]1CO)OCO3 [ALLYL PICROPODOPHYLLATE]", 80],
  ["COc1ccc(NCC2=Cc3cc4c(cc3[C@@H](c3cc(OC)c(OC)c(OC)c3)[C@@H]2C(=O)N2CCCC2)OCO4)cc1", 15000],
  ["CCNC(=O)[C@H]1[C@H](c2cc(OC)c(OC)c(OC)c2)c2cc3c(cc2[C@H](O)[C@H]1CO)OCO3", 10000]
]}

Entry under test: CC/N=C/C1=Cc2cc3c(cc2[C@@H](c2cc(OC)c(OC)c(OC)c2)[C@@H]1C(=O)OC)OCO3 . Its GI50 was 2.2

Entry under test: COc1ccc(NC(=O)[C@@H]2C(C=O)=Cc3cc4c(cc3[C@H]2c2cc(OC)c(OC)c(OC)c2)OCO4)cc1 . Its GI50 was 800

Entry under test: COC(=O)[C@@H]1C(CNc2ccc(C)cc2)=Cc2cc3c(cc2[C@H]1c1cc(OC)c(OC)c(OC)c1)OCO3 . Its GI50 was 800

Entry under test: COc1cc([C@@H]2c3cc4c(cc3[C@H](O)[C@H]3COC(=O)[C@H]23)OCO4)cc(OC)c1OC . Its GI50 was 24

---

Measured GI50 accompanies every entry in the list below.
- Tested on: A549
- methodDescription: Cytotoxicity against human A549 cells after 72 hrs by SRB assay
- Type: functional
- measurementContext: A549, 72 h
Entry rule: numbers only, all in nM.

Below: 2 compounds and their reported GI50.
{"columns": ["compound", "valueKind", "obsValue"],
 "data": [
  ["CCC/N=C/C1=Cc2cc3c(cc2[C@@H](c2cc(OC)c(OC)c(OC)c2)[C@@H]1C(=O)OCC)OCO3", "GI50", 230],
  ["COc1cc([C@@H]2c3cc4c(cc3C=C(C=O)[C@H]2C(=O)OCCCBr)OCO4)cc(OC)c1OC", "GI50", 130]
]}

Entry under test: CCNCC1=Cc2cc3c(cc2[C@@H](c2cc(OC)c(OC)c(OC)c2)[C@@H]1C(=O)OC)OCO3 . Its GI50 was 700

Entry under test: COc1cc(COC(=O)[C@@H]2C(C=O)=Cc3cc4c(cc3[C@H]2c2cc(OC)c(OC)c(OC)c2)OCO4)cc(OC)c1OC . Its GI50 was 34

---

Measured GI50 accompanies every entry in the list below.
- System: A549
- methodDescription: Cytotoxicity against human A549 cells after 72 hrs by SRB assay
- Type: functional
- measurementContext: A549, 72 h
Entry rule: numbers only, all in nM.

{"columns": ["compound", "systemUnderTest", "unitName", "GI50"],
 "data": [
  ["COc1cc([C@@H]2c3cc4c(cc3C=C(C=O)[C@H]2C(=O)OC/C=C/c2ccccc2)OCO4)cc(OC)c1OC", "A549", "nM", 32],
  ["COc1cc([C@@H]2c3cc4c(cc3C=C(C=O)[C@H]2C(=O)N2CCCC2)OCO4)cc(OC)c1OC", "A549", "nM", 6600],
  ["COc1cc([C@@H]2c3cc4c(cc3[C@H](O)[C@@H](CO)[C@H]2C(=O)OC/C=C/c2ccccc2)OCO4)cc(OC)c1OC [CINNAMYL PICROPODOPHYLLATE]", "A549", "nM", 200]
]}

Entry under test: CC/N=C/C1=Cc2cc3c(cc2[C@@H](c2cc(OC)c(OC)c(OC)c2)[C@@H]1C(=O)OC)OCO3 . Its GI50 was 22

---

- System: HT-29
- methodDescription: Cytotoxicity against human HT-29 cells after 72 hrs by SRB assay
- Type: functional
- measurementContext: HT-29, 72 h
Measured GI50 accompanies every entry in the list below.
Entry rule: numbers only, all in nM.

GI50 for HT-29 with input COc1cc(COC(=O)[C@@H]2C(C=O)=Cc3cc4c(cc3[C@H]2c2cc(OC)c(OC)c(OC)c2)OCO4)cc(OC)c1OC equals 20

GI50 for HT-29 with input COC(=O)[C@@H]1C(CNc2ccc(OC)cc2)=Cc2cc3c(cc2[C@H]1c1cc(OC)c(OC)c(OC)c1)OCO3 equals 700

GI50 for HT-29 with input COC(=O)[C@@H]1C(C=O)=Cc2cc3c(cc2[C@H]1c1cc(OC)c(OC)c(OC)c1)OCO3 [PODOPHYLLIC ALDEHYDE] equals 38

---

Measured GI50 accompanies every entry in the list below.
- Test system: HT-29
- methodDescription: Cytotoxicity against human HT-29 cells after 72 hrs by SRB assay
- Format: functional
- measurementContext: HT-29, 72 h
Could you write the number and then its unit?

Below: 3 molecules and their reported GI50.
{"columns": ["substanceSmiles", "GI50"],
 "data": [
  ["CCC/N=C/C1=Cc2cc3c(cc2[C@@H](c2cc(OC)c(OC)c(OC)c2)[C@@H]1C(=O)OCC)OCO3", "390 nM"],
  ["CCCNCC1=Cc2cc3c(cc2[C@@H](c2cc(OC)c(OC)c(OC)c2)[C@@H]1C(=O)OCC)OCO3", "270 nM"],
  ["CCCNCC1=Cc2cc3c(cc2[C@@H](c2cc(OC)c(OC)c(OC)c2)[C@@H]1C(=O)OC)OCO3", "1000 nM"]
]}

Now take the following molecule into account.
Entry under test: CCNC(=O)[C@@H]1C(C=O)=Cc2cc3c(cc2[C@H]1c1cc(OC)c(OC)c(OC)c1)OCO3 . Its GI50 was 8000 nM

---

- Test system: HT-29
- methodDescription: Induction of microtubule disruption in human HT-29 cells at 1 uM after 24 hrs
- Format: cell-based
Active and inactive are the calls of the source. The rule behind the calls is not given here.
valueKind: Activity

{"columns": ["substanceSmiles", "valueKind", "obsValue"],
 "data": [
  ["COc1ccc(NC(=O)[C@@H]2C(C=O)=Cc3cc4c(cc3[C@H]2c2cc(OC)c(OC)c(OC)c2)OCO4)cc1", "Activity", "inactive"],
  ["CCNC(=O)[C@@H]1C(C=O)=Cc2cc3c(cc2[C@H]1c1cc(OC)c(OC)c(OC)c1)OCO3", "Activity", "inactive"],
  ["CCCCCCCOC(=O)[C@@H]1C(C=O)=Cc2cc3c(cc2[C@H]1c1cc(OC)c(OC)c(OC)c1)OCO3", "Activity", "inactive"]
]}

---

- Test system: A549
- methodDescription: Cytotoxicity against human A549 cells after 72 hrs by SRB assay
- Assay type: functional
- measurementContext: A549, 72 h
Labelling field: enter Met if recorded GI50 is less than 900 nM. Enter Not met if it equals or exceeds that cut-off.

Please review the following examples before continuing.
{"columns": ["compound", "group"],
 "data": [
  ["COc1cc([C@@H]2c3cc4c(cc3[C@H](O)[C@H]3COC(=O)[C@H]23)OCO4)cc(OC)c1OC [PODOFILOX]", "Met"],
  ["CCCNCC1=Cc2cc3c(cc2[C@@H](c2cc(OC)c(OC)c(OC)c2)[C@@H]1C(=O)OCc1cc(OC)c(OC)c(OC)c1)OCO3", "Not met"],
  ["COC(=O)[C@@H]1C(/C=N/c2ccc(OC)cc2)=Cc2cc3c(cc2[C@H]1c1cc(OC)c(OC)c(OC)c1)OCO3", "Met"],
  ["C=CCOC(=O)[C@H]1[C@H](c2cc(OC)c(OC)c(OC)c2)c2cc3c(cc2[C@H](O)[C@H]1CO)OCO3 [ALLYL PICROPODOPHYLLATE]", "Met"],
  ["COC(=O)[C@@H]1C(C=O)=Cc2cc3c(cc2[C@H]1c1cc(OC)c(OC)c(OC)c1)OCO3 [PODOPHYLLIC ALDEHYDE]", "Met"],
  ["COc1ccc(NCC2=Cc3cc4c(cc3[C@@H](c3cc(OC)c(OC)c(OC)c3)[C@@H]2C(=O)N2CCCC2)OCO4)cc1", "Not met"],
  ["CCC/N=C/C1=Cc2cc3c(cc2[C@@H](c2cc(OC)c(OC)c(OC)c2)[C@@H]1C(=O)OCc1cc(OC)c(OC)c(OC)c1)OCO3", "Met"],
  ["COC(=O)[C@@H]1C(CNc2ccc(OC)cc2)=Cc2cc3c(cc2[C@H]1c1cc(OC)c(OC)c(OC)c1)OCO3", "Not met"],
  ["COc1cc([C@@H]2c3cc4c(cc3[C@H](O)[C@@H](CO)[C@H]2C(=O)N2CCCC2)OCO4)cc(OC)c1OC [PICROPODOPHYLLIC ACID PYRROLIDINYL AMIDE]", "Not met"],
  ["CCCCCCCOC(=O)[C@@H]1C(C=O)=Cc2cc3c(cc2[C@H]1c1cc(OC)c(OC)c(OC)c1)OCO3", "Not met"]
]}

INPUT: hey, is GI50 for C=CCOC(=O)[C@@H]1C(C=O)=Cc2cc3c(cc2[C@H]1c1cc(OC)c(OC)c(OC)c1)OCO3 lower than 900 nM or not?
OUTPUT: Met

INPUT: hey, is GI50 for COc1cc([C@@H]2c3cc4c(cc3[C@H](O)[C@@H](CO)[C@H]2C(=O)OCCCBr)OCO4)cc(OC)c1OC lower than 900 nM or not?
OUTPUT: Not met

INPUT: hey, is GI50 for CCC/N=C/C1=Cc2cc3c(cc2[C@@H](c2cc(OC)c(OC)c(OC)c2)[C@@H]1C(=O)OC)OCO3 lower than 900 nM or not?
OUTPUT: Met

INPUT: hey, is GI50 for CCNCC1=Cc2cc3c(cc2[C@@H](c2cc(OC)c(OC)c(OC)c2)[C@@H]1C(=O)N1CCCC1)OCO3 lower than 900 nM or not?
OUTPUT: Not met

INPUT: hey, is GI50 for CCNC(=O)[C@@H]1C(C=O)=Cc2cc3c(cc2[C@H]1c1cc(OC)c(OC)c(OC)c1)OCO3 lower than 900 nM or not?
OUTPUT: Not met

INPUT: hey, is GI50 for CCOC(=O)[C@H]1[C@H](c2cc(OC)c(OC)c(OC)c2)c2cc3c(cc2[C@H](O)[C@H]1CO)OCO3 [ETHYL PICROPODOPHYLLATE] lower than 900 nM or not?
OUTPUT: Met

INPUT: hey, is GI50 for CCCNCC1=Cc2cc3c(cc2[C@@H](c2cc(OC)c(OC)c(OC)c2)[C@@H]1C(=O)OCC)OCO3 lower than 900 nM or not?
OUTPUT: Met

INPUT: hey, is GI50 for COc1ccc(NC(=O)[C@@H]2C(C=O)=Cc3cc4c(cc3[C@H]2c2cc(OC)c(OC)c(OC)c2)OCO4)cc1 lower than 900 nM or not?
OUTPUT: Not met

INPUT: hey, is GI50 for CCOC(=O)COC(=O)[C@@H]1C(C=O)=Cc2cc3c(cc2[C@H]1c1cc(OC)c(OC)c(OC)c1)OCO3 lower than 900 nM or not?
OUTPUT: Met

INPUT: hey, is GI50 for CCNC(=O)[C@H]1[C@H](c2cc(OC)c(OC)c(OC)c2)c2cc3c(cc2[C@H](O)[C@H]1CO)OCO3 lower than 900 nM or not?
OUTPUT: Not met
